Let's look at some compounds and their measured MIC.
# System: Mycobacterium tuberculosis
# measurement-description: Antimycobacterial activity against non-replicating Mycobacterium tuberculosis H37Rv ATCC 27294 incubated for 10 days under anaerobic condition followed by treatment under aerobic condition and measured on day 11 by luminescence based low oxygen recovery assay
# Type: functional
# experimental-setup: H37Rv ATCC 27294, 264 h, time 11 day
Write it as a number; the unit µM goes unstated.

# annotated cases, reported MIC shown
Nc1nc2ccccc2c2ccccc12    62.1
CO[C@H]1/C=C/O[C@@]2(C)Oc3c(C)c(O)c4c(O)c(c(/C=N/N5CCN(C)CC5)c(O)c4c3C2=O)NC(=O)/C(C)=C\C=C\[C@H](C)[C@H](O)[C@@H](C)[C@@H](O)[C@@H](C)[C@H](OC(C)=O)[C@@H]1C [RIFAMPIN]    0.145
CCCCCCCC(=O)Nc1nc2ccccc2c2ccccc12    300
Cc1nc2c3ccccc3c3ccccc3n2c1C(=O)NCc1cn(-c2cccc([N+](=O)[O-])c2)nn1    87.4
O=C(Cc1c[nH]c2ccccc12)Nc1nc2ccccc2c2ccccc12    69

For the record "O=C(Cc1ccccc1)Nc1nc2ccccc2c2ccccc12" , what value of MIC is listed for Mycobacterium tuberculosis?
267

====

Let's look at some compounds and their measured MIC.
# Tested on: Mycobacterium tuberculosis
# measurement-description: Antimycobacterial activity against non-replicating Mycobacterium tuberculosis H37Rv ATCC 27294 incubated for 10 days under anaerobic condition followed by treatment under aerobic condition and measured on day 11 by luminescence based low oxygen recovery assay
# Format: functional
# experimental-setup: H37Rv ATCC 27294, 264 h, time 11 day
Write it as a number; the unit µM goes unstated.

NNC(=O)c1ccncc1    560

Can you look up the measured MIC of "Nc1ccc(C(=O)Nc2nc3ccccc3c3ccccc23)cc1" for me?
85.8

Can you look up the measured MIC of "COc1nc2ccc(Br)cc2cc1[C@@H](c1ccccc1)[C@@](O)(CCN(C)C)c1cccc2ccccc12" for me?
0.216

Can you look up the measured MIC of "Cc1nc2c3ccccc3c3ccccc3n2c1C(=O)NCc1cn(-c2ccc(C(F)(F)F)cc2)nn1" for me?
93

Can you look up the measured MIC of "Cc1nc2c3ccccc3c3ccccc3n2c1C(=O)NCc1cn(-c2cccc(C(F)(F)F)c2)nn1" for me?
89.5

====

Let's look at some compounds and their measured MIC.
# System: Mycobacterium tuberculosis
# measurement-description: Antimycobacterial activity against non-replicating Mycobacterium tuberculosis H37Rv ATCC 27294 incubated for 10 days under anaerobic condition followed by treatment under aerobic condition and measured on day 11 by luminescence based low oxygen recovery assay
# Assay type: functional
# experimental-setup: H37Rv ATCC 27294, 264 h, time 11 day
Write it as a number; the unit µM goes unstated.

# annotated cases, reported MIC shown
Nc1cccc(C(=O)Nc2nc3ccccc3c3ccccc23)c1    151
CCCCCC(=O)Nc1nc2ccccc2c2ccccc12    79.8
Cc1nc2c3ccccc3c3ccccc3n2c1C(=O)NCc1cn(-c2ccc([N+](=O)[O-])cc2Br)nn1    180
Cc1cc(C)cc(-n2cc(CNC(=O)c3c(C)nc4c5ccccc5c5ccccc5n34)nn2)c1    208
COc1ccc(-n2cc(CNC(=O)c3c(C)nc4c5ccccc5c5ccccc5n34)nn2)c([N+](=O)[O-])c1    106
O=C(CCCc1c[nH]c2ccccc12)Nc1nc2ccccc2c2ccccc12    218

Can you look up the measured MIC of "Cc1ccc(-n2cc(CNC(=O)c3c(C)nc4c5ccccc5c5ccccc5n34)nn2)cc1C" for me?
78.8
